Test system: 695427-040-R-J1-PDC complex spheroid viability
Experiment: Anticancer human tumor 695427-040-R-J1-PDC patient-derived colon adenocarcinoma cell line growth inhibition [POLQ]
Recorded Conditions: second compound 10 µM; first compound 1 µM; stronger effect = lower value
viability, T/C: recorded values
Lab book: enter the figure in %, no units written.

Example cases with answers are listed next.
{"Compound": "CCc1cc2c(N3CCc4c(cc(Cn5ccnc5)cc4-c4cn(C)nc4C(F)(F)F)C3=O)cc(C)nc2c(OC)n1 + COC1C(OC(N)=O)C(O)C(Oc2ccc3c(O)c(NC(=O)c4ccc(O)c(CC=C(C)C)c4)c(=O)oc3c2C)OC1(C)C", "viability, T/C [%]": 109}
{"Compound": "CC1COCCN1c1cc(C2(S(C)(=N)=O)CC2)nc(-c2ccnc3[nH]ccc23)n1 (stereo not given) + Cc1cccc(N(C)C(=O)C2C(O)CCN2c2nc(C)cc(C(F)(F)F)c2C#N)c1", "viability, T/C [%]": 87.8}
{"Compound": "COc1cc(C2c3cc4c(cc3C(OC3OC5COC(C)OC5C(O)C3O)C3COC(=O)C23)OCO4)cc(OC)c1O (stereo not given) + COC1C(OC(N)=O)C(O)C(Oc2ccc3c(O)c(NC(=O)c4ccc(O)c(CC=C(C)C)c4)c(=O)oc3c2C)OC1(C)C", "viability, T/C [%]": 99.9}
{"Compound": "O=c1[nH]cc(F)c(=O)[nH]1 + Nc1ccc(C#CCN(C(=O)Cc2ncc(C(F)(F)F)cc2C(F)(F)F)c2ccc(F)cc2)nn1", "viability, T/C [%]": 97.5}
{"Compound": "CCCS(=O)(=O)Nc1ccc(F)c(C(=O)c2c[nH]c3ncc(-c4ccc(Cl)cc4)cc23)c1F + Nc1ccc(C#CCN(C(=O)Cc2ncc(C(F)(F)F)cc2C(F)(F)F)c2ccc(F)cc2)nn1", "viability, T/C [%]": 95.3}

Input: Quick one: viability, T/C of COc1ccc([C@@H](O)c2cc(-c3ncnc4cc(N5CCOCC5)ccc34)c(F)cc2Cl)nn1 + Nc1ccc(C#CCN(C(=O)Cc2ncc(C(F)(F)F)cc2C(F)(F)F)c2ccc(F)cc2)nn1 ?
Output: 89.8

Input: Quick one: viability, T/C of CC1COCCN1c1cc(C2(S(C)(=N)=O)CC2)nc(-c2ccnc3[nH]ccc23)n1 (stereo not given) + Nc1ccc(C#CCN(C(=O)Cc2ncc(C(F)(F)F)cc2C(F)(F)F)c2ccc(F)cc2)nn1 ?
Output: 96.7

Input: Quick one: viability, T/C of COc1ccc([C@@H](O)c2cc(-c3ncnc4cc(N5CCOCC5)ccc34)c(F)cc2Cl)nn1 + COC1C(OC(N)=O)C(O)C(Oc2ccc3c(O)c(NC(=O)c4ccc(O)c(CC=C(C)C)c4)c(=O)oc3c2C)OC1(C)C ?
Output: 101

Input: Quick one: viability, T/C of C=CC(=O)N1CCN(c2nc(=O)n(-c3c(C)ccnc3C(C)C)c3nc(-c4c(O)cccc4F)c(F)cc23)C(C)C1 (stereo not given) + COC1C(OC(N)=O)C(O)C(Oc2ccc3c(O)c(NC(=O)c4ccc(O)c(CC=C(C)C)c4)c(=O)oc3c2C)OC1(C)C ?
Output: 109

Input: Quick one: viability, T/C of CC1COCCN1c1cc(C2(S(C)(=N)=O)CC2)nc(-c2ccnc3[nH]ccc23)n1 (stereo not given) + COC1C(OC(N)=O)C(O)C(Oc2ccc3c(O)c(NC(=O)c4ccc(O)c(CC=C(C)C)c4)c(=O)oc3c2C)OC1(C)C ?
Output: 97.7

---

Tested on: 695427-040-R-J1-PDC complex spheroid viability
Experiment: Anticancer human tumor 695427-040-R-J1-PDC cell line growth inhibition [POLQ];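 note: spheroids exposed to compounds for seven days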
Recorded Conditions: curve of first compound; second compound 0.0316 µM
pIC50: −log10 of the molar value.
Measurement Label: pIC50

{"Compound": "O=c1[nH]cc(F)c(=O)[nH]1 + Cc1cccc(N(C)C(=O)C2C(O)CCN2c2nc(C)cc(C(F)(F)F)c2C#N)c1", "Measurement Label": "pIC50", "Meas Value": "< 5.00"}

Input: Quick one: pIC50 of CCCS(=O)(=O)Nc1ccc(F)c(C(=O)c2c[nH]c3ncc(-c4ccc(Cl)cc4)cc23)c1F + Nc1ccc(C#CCN(C(=O)Cc2ncc(C(F)(F)F)cc2C(F)(F)F)c2ccc(F)cc2)nn1 ?
Output: < 5.00

---

viability, T/C: recorded values
Test system: 695427-040-R-J1-PDC complex spheroid viability
Experiment: Anticancer human tumor 695427-040-R-J1-PDC cell line growth inhibition [POLQ];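 note: spheroids exposed to compounds for seven days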;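 for viability, T/C: 100% = DMSO vehicle control viability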
Recorded Conditions: second compound 0.1 µM; first compound 1 µM; stronger effect = lower value
Lab book: enter the figure in %, no units written.

{"Compound": "CC1COCCN1c1cc(C2(O)CC3CCC(C2)O3)c2cnn(-c3ccn[nH]3)c2n1 (stereo unspecified) + COC1C(OC(N)=O)C(O)C(Oc2ccc3c(O)c(NC(=O)c4ccc(O)c(CC=C(C)C)c4)c(=O)oc3c2C)OC1(C)C", "Tested On": "695427-040-R-J1-PDC complex spheroid viability", "viability, T/C, %": 61.5}
{"Compound": "COc1cccc2c1C(=O)c1c(O)c3c(c(O)c1C2=O)CC(O)(C(=O)CO)CC3OC1CC(N)C(O)C(C)O1 (stereo unspecified) + Nc1ccc(C#CCN(C(=O)Cc2ncc(C(F)(F)F)cc2C(F)(F)F)c2ccc(F)cc2)nn1", "Tested On": "695427-040-R-J1-PDC complex spheroid viability", "viability, T/C, %": 80}
{"Compound": "CC1COCCN1c1cc(-c2ccnn2C)c2ccnc(-c3ccn[nH]3)c2n1 (stereo unspecified) + COC1C(OC(N)=O)C(O)C(Oc2ccc3c(O)c(NC(=O)c4ccc(O)c(CC=C(C)C)c4)c(=O)oc3c2C)OC1(C)C", "Tested On": "695427-040-R-J1-PDC complex spheroid viability", "viability, T/C, %": 49.9}
{"Compound": "CCCS(=O)(=O)Nc1ccc(F)c(C(=O)c2c[nH]c3ncc(-c4ccc(Cl)cc4)cc23)c1F + Cc1cccc(N(C)C(=O)C2C(O)CCN2c2nc(C)cc(C(F)(F)F)c2C#N)c1", "Tested On": "695427-040-R-J1-PDC complex spheroid viability", "viability, T/C, %": 109}
{"Compound": "O=C(Nc1ccc(O)c(NS(=O)(=O)c2ccc(F)cc2)c1)c1ccc(-c2ccccc2)cc1 + Nc1ccc(C#CCN(C(=O)Cc2ncc(C(F)(F)F)cc2C(F)(F)F)c2ccc(F)cc2)nn1", "Tested On": "695427-040-R-J1-PDC complex spheroid viability", "viability, T/C, %": 104}
{"Compound": "CCc1c2c(nc3ccc(O)cc13)-c1cc3c(c(=O)n1C2)COC(=O)[C@]3(O)CC + Cc1cccc(N(C)C(=O)C2C(O)CCN2c2nc(C)cc(C(F)(F)F)c2C#N)c1", "Tested On": "695427-040-R-J1-PDC complex spheroid viability", "viability, T/C, %": 52.8}

Input: Quick one: viability, T/C of CCc1c2c(nc3ccc(O)cc13)-c1cc3c(c(=O)n1C2)COC(=O)[C@]3(O)CC + Nc1ccc(C#CCN(C(=O)Cc2ncc(C(F)(F)F)cc2C(F)(F)F)c2ccc(F)cc2)nn1 ?
Output: 60

Input: Quick one: viability, T/C of COc1cccc2c1C(=O)c1c(O)c3c(c(O)c1C2=O)CC(O)(C(=O)CO)CC3OC1CC(N)C(O)C(C)O1 (stereo unspecified) + COC1C(OC(N)=O)C(O)C(Oc2ccc3c(O)c(NC(=O)c4ccc(O)c(CC=C(C)C)c4)c(=O)oc3c2C)OC1(C)C ?
Output: 74.4

Input: Quick one: viability, T/C of O=c1[nH]cc(F)c(=O)[nH]1 + Cc1cccc(N(C)C(=O)C2C(O)CCN2c2nc(C)cc(C(F)(F)F)c2C#N)c1 ?
Output: 101

Input: Quick one: viability, T/C of COc1cc2cc(C(=O)CCC(=O)O)sc2cc1OC + COC1C(OC(N)=O)C(O)C(Oc2ccc3c(O)c(NC(=O)c4ccc(O)c(CC=C(C)C)c4)c(=O)oc3c2C)OC1(C)C ?
Output: 99.2

Input: Quick one: viability, T/C of COc1cc2cc(C(=O)CCC(=O)O)sc2cc1OC + Cc1cccc(N(C)C(=O)C2C(O)CCN2c2nc(C)cc(C(F)(F)F)c2C#N)c1 ?
Output: 95.3

---

Tested on: 695427-040-R-J1-PDC complex spheroid viability
Experiment: Anticancer human tumor 695427-040-R-J1-PDC cell line growth inhibition [POLQ];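 note: spheroids exposed to compounds for seven days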;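 for viability, T/C: 100% = DMSO vehicle control viability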
Recorded Conditions: second compound 10 µM; first compound 10 µM; stronger effect = lower value
viability, T/C: recorded values
Lab book: enter the figure in %, no units written.

Example cases with answers are listed next.
{"Molecule": "CCCS(=O)(=O)Nc1ccc(F)c(C(=O)c2c[nH]c3ncc(-c4ccc(Cl)cc4)cc23)c1F + COC1C(OC(N)=O)C(O)C(Oc2ccc3c(O)c(NC(=O)c4ccc(O)c(CC=C(C)C)c4)c(=O)oc3c2C)OC1(C)C", "Tested On": "695427-040-R-J1-PDC complex spheroid viability", "viability, T/C (%)": 77}
{"Molecule": "CCc1cc2c(N3CCc4c(cc(Cn5ccnc5)cc4-c4cn(C)nc4C(F)(F)F)C3=O)cc(C)nc2c(OC)n1 + Cc1cccc(N(C)C(=O)C2C(O)CCN2c2nc(C)cc(C(F)(F)F)c2C#N)c1", "Tested On": "695427-040-R-J1-PDC complex spheroid viability", "viability, T/C (%)": 89.7}

Now take the following molecule into account.
Input: Quick one: viability, T/C of COc1cccc2c1C(=O)c1c(O)c3c(c(O)c1C2=O)CC(O)(C(=O)CO)CC3OC1CC(N)C(O)C(C)O1 (stereo not drawn) + COC1C(OC(N)=O)C(O)C(Oc2ccc3c(O)c(NC(=O)c4ccc(O)c(CC=C(C)C)c4)c(=O)oc3c2C)OC1(C)C ?
Output: 55.8
